molecular target: CDK8/CycC (Homo sapiens); construct: purchased Carna Biosciences; test: CDK8 inhibitory activity (Kinase Tracer-236 / Eu-anti-GST fluorescence assay); format: binding; set-up: concentration or dose not given beside the values; settings: test compound concentration given as '1 1.1.1\4' [sic]
Sequence (P49336 whole entry): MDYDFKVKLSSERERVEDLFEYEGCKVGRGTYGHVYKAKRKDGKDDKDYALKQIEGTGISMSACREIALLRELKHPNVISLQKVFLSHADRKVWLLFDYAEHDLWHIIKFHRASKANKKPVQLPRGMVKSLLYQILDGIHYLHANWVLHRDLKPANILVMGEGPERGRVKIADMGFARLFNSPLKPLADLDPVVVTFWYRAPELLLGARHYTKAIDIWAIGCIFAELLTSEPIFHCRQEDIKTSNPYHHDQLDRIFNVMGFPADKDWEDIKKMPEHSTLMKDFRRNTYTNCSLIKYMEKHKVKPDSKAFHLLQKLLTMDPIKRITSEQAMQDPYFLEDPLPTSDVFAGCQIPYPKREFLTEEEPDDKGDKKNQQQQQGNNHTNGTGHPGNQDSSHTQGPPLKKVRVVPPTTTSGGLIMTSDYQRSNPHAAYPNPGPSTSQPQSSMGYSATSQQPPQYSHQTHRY
Sequence (P24863 whole entry partner): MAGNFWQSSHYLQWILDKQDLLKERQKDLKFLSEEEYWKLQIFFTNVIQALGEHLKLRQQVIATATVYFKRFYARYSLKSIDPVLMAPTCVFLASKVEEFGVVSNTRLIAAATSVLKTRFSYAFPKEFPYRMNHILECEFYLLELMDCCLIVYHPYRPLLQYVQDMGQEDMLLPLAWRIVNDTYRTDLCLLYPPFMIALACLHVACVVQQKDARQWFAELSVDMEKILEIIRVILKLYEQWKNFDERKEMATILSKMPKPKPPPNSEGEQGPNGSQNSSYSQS
parameter: Percent inhibition of CDK8 activity (%)
Give bare numbers, in %.

// solved cases for Percent inhibition of CDK8 activity (%) follow
In [3]: df
Out[3]:
                                        smi  units_of_measure  quantitative_result
0  CNC(=O)c1ccc(Oc2sc(C(N)=O)c3c2-c2sncc2CC3)cn1                 %                  102
1  NC(=O)c1sc(Oc2ccc(C(=O)N3CCOCC3)cc2)c2c1CCc1cnsc1-2                 %                   97
2  CON(C)C(=O)c1sc(Oc2cccnc2C)c2c1CCc1cnsc1-2                 %                  100
3  CN(CCO)C(=O)c1ccc(Oc2sc(C(N)=O)c3c2-c2sncc2CC3)cn1                 %                   99
4  Cc1nn(C)c(C)c1Oc1sc(C(N)=O)c2c1-c1sncc1CC2                 %                  107
5  Cc1n[nH]c(C)c1Oc1sc(C(N)=O)c2c1-c1sncc1CC2                 %                  105
6  COCC(=O)Nc1ccc(Oc2sc(C(N)=O)c3c2-c2sncc2CC3)c(C)n1                 %                  106
7  CCOCCNC(=O)c1ccc(Oc2sc(C(N)=O)c3c2-c2sncc2CC3)c(C)n1                 %                  108

For reference, reported Percent inhibition of CDK8 activity (%) for Cc1ncccc1Oc1sc(C(N)=O)c2c1-c1sncc1CC2 stands at 100
